All figures here come from patent US9062024B2.

The following molecules are listed with their measured melting point values.

For orientation, consider the following solved cases.
smiles-str: CC(=O)N1CCN=C(c2cnc3ccccc3c2)c2ccccc21
measurement-label: melting point
result: 187 to 189 °C
--
smiles-str: CC1(C)CCN=C(c2cnc3ccccc3c2)c2ccccc21
measurement-label: melting point
result: 121 to 123 °C
--
smiles-str: CC1(C)CN=C(c2cnc3ccccc3c2)c2ccccc2C1
measurement-label: melting point
result: 115 to 116 °C

In plain terms, c1ccc2c(c1)NCCN=C2c1cnc2ccccc2c1 has a documented melting point of 201 to 202 °C
